SYSTEM UNDER TEST: Serine/threonine-protein kinase PAK 2 (Homo sapiens) (UniProt Q13177);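 note: values are mean percent inhibition of PAK2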
Sequence (Q13177 whole entry): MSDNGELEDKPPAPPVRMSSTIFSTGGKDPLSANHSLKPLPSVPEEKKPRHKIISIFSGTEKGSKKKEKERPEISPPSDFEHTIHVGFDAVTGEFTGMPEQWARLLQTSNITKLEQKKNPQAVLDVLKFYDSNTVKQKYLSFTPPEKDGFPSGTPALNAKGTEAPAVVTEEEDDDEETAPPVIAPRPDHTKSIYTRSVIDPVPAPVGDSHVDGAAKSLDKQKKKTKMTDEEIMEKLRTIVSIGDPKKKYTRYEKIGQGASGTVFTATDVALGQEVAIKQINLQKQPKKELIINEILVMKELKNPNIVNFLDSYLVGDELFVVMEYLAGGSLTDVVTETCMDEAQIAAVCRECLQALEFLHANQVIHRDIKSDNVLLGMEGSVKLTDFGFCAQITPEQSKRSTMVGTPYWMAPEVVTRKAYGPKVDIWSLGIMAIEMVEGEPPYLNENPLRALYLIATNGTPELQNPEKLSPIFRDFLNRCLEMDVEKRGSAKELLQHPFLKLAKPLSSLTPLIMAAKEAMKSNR
APPLIED CONDITIONS: at 0.1 µM
Listed compounds paired with reported inhibition
ATTRIBUTE MEASURED: inhibition (%)

INSERT INTO measurements (chemical_structure, system_under_test, attribute_measured, numeric_result) VALUES
  ('CCc1nn2ncccc2c1-c1ccnc(NC2CC2)n1', 'Serine/threonine-protein kinase PAK 2 (Homo sapiens) (UniProt Q13177)', 'inhibition', 1.85),
  ('c1cc(-c2cnn3nc(N4CCOCC4)ccc23)nc(NC2CC2)n1', 'Serine/threonine-protein kinase PAK 2 (Homo sapiens) (UniProt Q13177)', 'inhibition', 3.69),
  ('Cc1cccc(Nc2ncc(-c3ccccc3)o2)c1', 'Serine/threonine-protein kinase PAK 2 (Homo sapiens) (UniProt Q13177)', 'inhibition', 0.94);

====

SYSTEM UNDER TEST: Tyrosine-protein kinase Lyn (Homo sapiens) (UniProt P07948);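 note: mean inhibition of the LYN A splice variant of the kinase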
Sequence (P07948 2-512 limits assumed): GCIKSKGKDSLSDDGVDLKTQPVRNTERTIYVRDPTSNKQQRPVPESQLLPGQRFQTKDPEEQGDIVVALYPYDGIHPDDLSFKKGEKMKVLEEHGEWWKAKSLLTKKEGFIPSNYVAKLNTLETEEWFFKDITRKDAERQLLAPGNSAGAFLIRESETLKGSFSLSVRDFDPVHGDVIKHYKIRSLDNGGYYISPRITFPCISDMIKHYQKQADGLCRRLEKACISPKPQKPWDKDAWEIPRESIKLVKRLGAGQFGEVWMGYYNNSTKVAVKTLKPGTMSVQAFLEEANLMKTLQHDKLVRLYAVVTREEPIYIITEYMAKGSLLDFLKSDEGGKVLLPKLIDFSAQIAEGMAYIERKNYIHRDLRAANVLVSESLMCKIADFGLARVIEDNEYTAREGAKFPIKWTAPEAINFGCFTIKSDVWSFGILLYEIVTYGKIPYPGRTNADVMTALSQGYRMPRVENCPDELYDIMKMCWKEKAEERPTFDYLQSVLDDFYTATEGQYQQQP
APPLIED CONDITIONS: at 0.1 µM
Description: GSK_PKIS: LYN A (splice variant) mean inhibition at 0.1 uM [Nanosyn]
ATTRIBUTE MEASURED: inhibition (%)

INSERT INTO assay_data (chemical_structure, attribute_measured, numeric_result) VALUES
  ('COc1ccc(CNC(=O)c2ccc(-c3cc(-c4nnc(C)o4)ccc3C)cc2)cc1', 'inhibition', 4.62),
  ('COc1ccc2c(-c3ccnc(Nc4cccc(OC(F)(F)F)c4)n3)cnn2n1', 'inhibition', 7.95),
  ('Fc1ccc(-c2nn3ncccc3c2-c2ccnc(Nc3ccc4c(c3)OCCO4)n2)cc1', 'inhibition', 32.5),
  ('CCNC(=O)O[C@H]1CN[C@H](C#Cc2cc3ncnc(Nc4ccc(OCc5cccc(F)c5)c(Cl)c4)c3s2)C1', 'inhibition', 5.67),
  ('CC(=O)NCc1cccc(C#Cc2cncnc2Nc2ccc(OCc3cccc(F)c3)c(Cl)c2)c1', 'inhibition', -0.07),
  ('CCOc1ccc2c(-c3ccnc(Nc4cccc(C(F)(F)F)c4)n3)cnn2n1', 'inhibition', 4.33),
  ('CNC(=O)c1cccc(C#Cc2cncnc2Nc2ccc(OCc3cccc(F)c3)c(Cl)c2)c1', 'inhibition', 3.69),
  ('O=S(=O)(CCNCc1ccc(-c2ccc3ncnc(Nc4ccc(OCc5cccc(F)c5)c(Cl)c4)c3c2)o1)c1ccccc1', 'inhibition', 6.84),
  ('Nc1nc(-c2cccc(Cl)c2)c(-c2ccc3ncccc3n2)s1', 'inhibition', 7.27),
  ('NS(=O)(=O)c1ccc(Nc2ncc(-c3ccccc3)o2)cc1', 'inhibition', 5.4),
  ('CCn1c(-c2nonc2N)nc2c(C#CC(C)(C)O)nc(OC[C@H](N)c3ccccc3)cc21', 'inhibition', 4.19),
  ('CCn1cc(-c2ccnc3[nH]ccc23)c(-c2cccc(NC(=O)Nc3ccc(OCc4ccccc4)cc3)c2)n1', 'inhibition', 5.25),
  ('O=C(Nc1n[nH]c2cc(-c3ccc(F)cc3)ccc12)C1CC1', 'inhibition', 6.61),
  ('COC(=O)Nc1nc2ccc(S(=O)(=O)c3ccc(NC(=O)Nc4cc(C(F)(F)F)ccc4F)cc3)cc2[nH]1', 'inhibition', 3.86),
  ('[O-][S+]1CCN(Cc2ccc(-c3ccc4ncnc(Nc5ccc(OCc6cccc(F)c6)c(Cl)c5)c4c3)o2)CC1', 'inhibition', 6.15);

====

Test system: Tyrosine-protein kinase ABL1 (Homo sapiens), P00519 [H396P]
APPLIED CONDITIONS: at 0.1 µM
ATTRIBUTE MEASURED: inhibition (%)

INSERT INTO assay_data (chemical_structure, system_under_test, numeric_result) VALUES
  ('CCn1c(-c2nonc2N)nc2c(C#CC(C)(C)O)nc(OC[C@H](N)c3ccccc3)cc21', 'Tyrosine-protein kinase ABL1 (Homo sapiens), P00519 [H396P]', 1.67),
  ('Cc1ccc(O)cc1Nc1ccnc2cc(-c3ccccn3)ccc12', 'Tyrosine-protein kinase ABL1 (Homo sapiens), P00519 [H396P]', 94.7),
  ('COC(=O)Nc1nc2ccc(S(=O)(=O)c3ccc(NC(=O)Nc4cc(C(F)(F)F)ccc4F)cc3)cc2[nH]1', 'Tyrosine-protein kinase ABL1 (Homo sapiens), P00519 [H396P]', 2.6),
  ('CC(=O)NCc1cccc(C#Cc2cncnc2Nc2ccc(OCc3cccc(F)c3)c(Cl)c2)c1', 'Tyrosine-protein kinase ABL1 (Homo sapiens), P00519 [H396P]', 2.49),
  ('Fc1ccc(-c2cc(-c3c[nH]nc3-c3ccccn3)ccn2)cc1', 'Tyrosine-protein kinase ABL1 (Homo sapiens), P00519 [H396P]', 7.22),
  ('N#Cc1c(NC(=O)c2ccc(F)cc2)sc2c1CCCC2', 'Tyrosine-protein kinase ABL1 (Homo sapiens), P00519 [H396P]', -0.63),
  ('CS(=O)(=O)CCNCc1coc(-c2ccc3ncnc(Nc4ccc(OCc5ccccc5)cc4)c3c2)c1', 'Tyrosine-protein kinase ABL1 (Homo sapiens), P00519 [H396P]', 4.11),
  ('COc1cc2ncn(-c3cc(OCc4ccccc4C(F)(F)F)c(C(=O)N(C)C)s3)c2cc1OC', 'Tyrosine-protein kinase ABL1 (Homo sapiens), P00519 [H396P]', 2.27),
  ('Nc1nc(-c2ccc(F)cc2)c(-c2ccc3ncccc3n2)s1', 'Tyrosine-protein kinase ABL1 (Homo sapiens), P00519 [H396P]', 6.76),
  ('Cc1cccc2c1NC(=O)/C2=N\Nc1ccc(S(N)(=O)=O)cc1', 'Tyrosine-protein kinase ABL1 (Homo sapiens), P00519 [H396P]', 6.45),
  ('Cc1cccc(Nc2ncc(-c3ccccc3)o2)c1', 'Tyrosine-protein kinase ABL1 (Homo sapiens), P00519 [H396P]', 5.02),
  ('CCNC(=O)O[C@H]1CN[C@H](C#Cc2cc3ncnc(Nc4ccc(OCc5cccc(F)c5)c(Cl)c4)c3s2)C1', 'Tyrosine-protein kinase ABL1 (Homo sapiens), P00519 [H396P]', 3.17);
